experimental-system: Recombinant Human Poly(ADP-Ribose) Polymerase (PARP), PARP-1 (Homo sapiens (Human), UniProt P09874)
Sequence (P09874 whole entry): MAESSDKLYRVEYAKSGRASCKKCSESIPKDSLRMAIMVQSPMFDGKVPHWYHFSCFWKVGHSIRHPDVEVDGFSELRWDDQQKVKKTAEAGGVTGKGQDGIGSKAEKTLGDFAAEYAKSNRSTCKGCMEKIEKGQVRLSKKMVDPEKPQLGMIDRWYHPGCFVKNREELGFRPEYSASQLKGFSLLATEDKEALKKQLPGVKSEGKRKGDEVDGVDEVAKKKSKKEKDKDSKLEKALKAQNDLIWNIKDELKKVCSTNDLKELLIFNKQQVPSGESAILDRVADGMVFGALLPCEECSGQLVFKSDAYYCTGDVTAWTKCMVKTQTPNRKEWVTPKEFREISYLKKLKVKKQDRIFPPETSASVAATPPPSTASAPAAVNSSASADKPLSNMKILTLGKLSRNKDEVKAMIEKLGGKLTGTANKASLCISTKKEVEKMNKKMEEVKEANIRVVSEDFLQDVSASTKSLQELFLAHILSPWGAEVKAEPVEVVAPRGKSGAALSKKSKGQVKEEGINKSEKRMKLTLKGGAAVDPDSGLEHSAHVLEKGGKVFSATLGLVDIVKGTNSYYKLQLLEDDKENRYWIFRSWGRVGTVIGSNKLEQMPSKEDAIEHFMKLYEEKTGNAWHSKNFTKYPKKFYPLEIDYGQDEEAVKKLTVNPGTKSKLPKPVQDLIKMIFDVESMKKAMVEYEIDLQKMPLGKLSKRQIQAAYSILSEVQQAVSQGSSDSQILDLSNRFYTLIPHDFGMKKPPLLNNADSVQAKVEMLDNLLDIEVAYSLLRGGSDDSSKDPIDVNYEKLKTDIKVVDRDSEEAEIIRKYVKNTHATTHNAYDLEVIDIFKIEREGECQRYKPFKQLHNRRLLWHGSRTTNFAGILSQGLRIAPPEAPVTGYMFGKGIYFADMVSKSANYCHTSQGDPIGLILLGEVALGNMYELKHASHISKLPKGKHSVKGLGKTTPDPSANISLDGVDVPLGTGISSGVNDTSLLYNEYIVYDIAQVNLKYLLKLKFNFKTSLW
stated-conditions: read-out: PARP-1 (Ki); Table 1; text calls the values EC50s
measure-name: Ki (nM)

| given-smiles | readout-unit | Ki |
| --- | --- | --- |
| O=C(c1ccc2ccccc2n1)N1CCN(C(=O)c2cc(Cc3n[nH]c(=O)c4c3NCCC4)ccc2F)CC1 | nM | 1.5 |

I. CN1CCN(C2CCN(C(=O)c3cc(Cc4n[nH]c(=O)c5c4NCCC5)ccc3F)CC2)CC1
II. CNC(=O)c1ccc(Cc2n[nH]c(=O)c3c2CCCC3)s1
III. O=C(c1cnc(Cl)c(O)c1)N1CCN(C(=O)c2cc(Cc3n[nH]c(=O)c4c3NCCC4)ccc2F)CC1
Sort (3 molecules) by Ki: min first. Write the labels, ordered according to the request.
III, I, II
(III: 1.1 nM, I: 3 nM, II: 372 nM)

---

experimental-system: Recombinant Human Poly(ADP-Ribose) Polymerase (PARP), PARP-1 (Homo sapiens (Human))
stated-conditions: read-out: PARP-1 (Ki); Table 1; text calls the values EC50s
measure-name: Ki (nM)

| compound | measure-name | readout-unit | quantitative-readout |
| --- | --- | --- | --- |
| CC(c1ccc(F)c(N2CCCC2=O)c1)c1n[nH]c(=O)c2c1CCCC2 (centres unmarked) | Ki | nM | 18 |
| COc1ccc(N2CCN(C(=O)c3cc(Cc4n[nH]c(=O)c5c4NCCC5)ccc3F)CC2)cc1 | Ki | nM | 1.1 |
| O=C(NC1CCC1)c1cc(Cc2n[nH]c(=O)c3c2NCCC3)ccc1F | Ki | nM | 51 |
| COc1ccc(Cc2n[nH]c(=O)c3c2CCCC3)cc1N | Ki | nM | 467 |
| O=C(Nc1cccc(Cc2n[nH]c(=O)c3c2CCCC3)c1)c1ccc2ccccc2c1 | Ki | nM | 110 |
| NCC(=O)Nc1cccc(Cc2n[nH]c(=O)c3c2CCCC3)c1 | Ki | nM | 12 |

I. O=C1CCN1c1cc(Cc2n[nH]c(=O)c3cccnc23)ccc1F
II. O=C(NC1CCN(C(=O)c2cc(Cc3n[nH]c(=O)c4c3NCCC4)ccc2F)CC1)c1ccc2cn[nH]c2c1
Which entry has a larger number for Ki, I or II ? I would appreciate it if you answered with the label of your choice.
I

---

experimental-system: Recombinant Human Poly(ADP-Ribose) Polymerase (PARP), PARP-1 (Homo sapiens (Human))
stated-conditions: read-out: PARP-1 (Ki); Table 1; text calls the values EC50s
measure-name: Ki (nM)

| compound | Ki [nM] |
| --- | --- |
| Cc1cncc(N2CCN(C(=O)c3cc(Cc4n[nH]c(=O)c5c4NCCC5)ccc3F)CC2)n1 [Example 573] | 0.9 |

I. O=C(c1cc(Cc2n[nH]c(=O)c3c2NCCC3)ccc1F)N1CCN(C(=O)C2CCCC2)CC1 [Example 640]
II. COc1cc(CCNC(=O)c2cccc(Cc3n[nH]c(=O)c4c3CCCC4)c2)cc(OC)c1 [Example 406]
III. C[S+]([O-])c1nccc(Cc2n[nH]c(=O)c3c2CCCC3)n1 (stereo not shown) [Example 70]
Sort (3 compounds) by Ki: min first. Write the labels, ordered according to the request.
I, II, III
(I: 0.7 nM, II: 42 nM, III: 101 nM)

---

experimental-system: Recombinant Human Poly(ADP-Ribose) Polymerase (PARP), PARP-1 (Homo sapiens (Human))
stated-conditions: read-out: PARP-1 (Ki)
measure-name: Ki (nM)

1. O=C(OCc1ccccc1)N1CCN(C(=O)c2cc(Cc3n[nH]c(=O)c4c3CCCC4)ccc2F)CC1
2. O=C(c1cc(Cc2n[nH]c(=O)c3c2NCCC3)ccc1F)N1CCN(C(=O)N2CCOCC2)CC1
3. CC(C)C[C@H](NC(=O)Nc1cc(Cc2n[nH]c(=O)c3c2CCCC3)ccc1F)C(=O)O
Sequence the entries by Ki, beginning with the highest number. Write the labels, ordered according to the request.
3, 1, 2

---

experimental-system: Recombinant Human Poly(ADP-Ribose) Polymerase (PARP), PARP-1 (Homo sapiens (Human), UniProt P09874)
stated-conditions: read-out: PARP-1 (Ki); Table 1; text calls the values EC50s
measure-name: Ki (nM)

Below, 5 compounds whose answers are already recorded.
| given-smiles | Ki (nM) |
| --- | --- |
| O=c1[nH]nc(Cc2ccc(F)c(N3CCCCS3(=O)=O)c2)c2c1CCCC2 | 694 |
| CCN(CCN(C)C)C(=O)c1cccc(Cc2n[nH]c(=O)c3c2CCCC3)c1 | 34 |
| COc1ccc(Nc2ccc(NC(=O)c3cccc(Cc4n[nH]c(=O)c5c4CCCC5)c3)cc2)cc1 | 120 |
| O=C(NC1CCCCC1)c1cccc(Cc2n[nH]c(=O)c3c2CCCC3)n1 | 617 |
| O=C(Cc1cccc(Oc2ccccc2)c1)Nc1cccc(Cc2n[nH]c(=O)c3c2CCCC3)c1 | 43 |

P. CC(=O)CCCC(=O)Nc1cc(Cc2n[nH]c(=O)c3c2CCCC3)ccc1F
Q. CC(=O)N[C@@H](CC(C)C)C(=O)Nc1cccc(Cc2n[nH]c(=O)c3c2CCCC3)c1
Which entry has a larger number for Ki, P or Q ? I would appreciate it if you answered with the label of your choice.
Q

---

experimental-system: Recombinant Human Poly(ADP-Ribose) Polymerase (PARP), PARP-1 (Homo sapiens (Human), UniProt P09874)
stated-conditions: read-out: PARP-1 (Ki); Table 1; text calls the values EC50s
measure-name: Ki (nM)

Below, 10 compounds whose answers are already recorded.
| compound | Ki, nM |
| --- | --- |
| CC(C)(C)c1ccc(NC(=O)c2cccc(Cc3n[nH]c(=O)c4c3CCCC4)c2)cc1 | 363 |
| CN1CCN(C(=O)c2cc(Cc3n[nH]c(=O)c4c3CCCC4)ccc2F)CC1=O | 0.3 |
| O=C(COc1ccccc1)Nc1cccc(CCc2n[nH]c(=O)c3c2CCCC3)c1 | 144 |
| CN(C(=O)c1cc(Cc2n[nH]c(=O)c3c2NCCC3)ccc1F)C1CCN(C(=O)c2cccnc2)CC1 | 7 |
| COc1ccc(CCNC(=O)c2cccc(Cc3n[nH]c(=O)c4c3CCCC4)c2)cc1 | 40 |
| O=C(c1ccc(O)nc1)N1CCN(C(=O)c2cc(Cc3n[nH]c(=O)c4c3CCCC4)ccc2F)CC1 | 1.5 |
| COc1ccc(N2CCN(C(=O)c3cc(Cc4n[nH]c(=O)c5c4CCCC5)ccc3F)CC2)cc1 | 3 |
| CC(c1cccc(-c2cccc(C(=O)NCCN(C)C)c2)c1)c1n[nH]c(=O)c2c1CCCC2 (centres unmarked) | 771 |
| O=C(c1ccccn1)N1CCN(C(=O)c2cc(Cc3n[nH]c(=O)c4c3NCCC4)ccc2F)CC1 | 1.1 |
| O=C(O)c1cc(Cc2n[nH]c(=O)c3c2NCCC3)ccc1F | 249 |

1. O=C(Nc1cccc(Cc2n[nH]c(=O)c3c2CCCC3)c1)c1ccc(I)cc1
2. O=C(NCc1cccs1)c1cccc(Cc2n[nH]c(=O)c3c2CCCC3)c1
3. O=C(c1cc[nH]n1)N1CCCN(C(=O)c2cc(Cc3n[nH]c(=O)c4c3NCCC4)ccc2F)CC1
4. O=C(Nc1ccc(Cc2n[nH]c(=O)c3c2CCCC3)cn1)c1ccncc1
Place the items in sequence of falling Ki. Write the labels, ordered according to the request.
4, 1, 2, 3
(4: 216 nM, 1: 48 nM, 2: 29 nM, 3: 2.1 nM)

---

experimental-system: Recombinant Human Poly(ADP-Ribose) Polymerase (PARP), PARP-1 (Homo sapiens (Human))
stated-conditions: read-out: PARP-1 (Ki); Table 1; text calls the values EC50s
measure-name: Ki (nM)

| given-smiles | quantitative-readout |
| --- | --- |
| O=C(Cc1ccccn1)Nc1cccc(Cc2n[nH]c(=O)c3c2CCCC3)c1 | 85 |
| Cc1ccc(Cc2n[nH]c(=O)c3c2CCCC3)cc1N | 309 |

1. O=C(c1cccc(Cc2n[nH]c(=O)c3c2CCCC3)c1)N(CCO)Cc1ccccc1
2. CCC(=O)N1CCN(C(=O)c2cc(Cc3n[nH]c(=O)c4c3CCCC4)ccc2F)CC1
3. CC1(C)CC(=O)N(c2cc(Cc3n[nH]c(=O)c4c3CCCC4)ccc2F)C1=O
Place the items in sequence of falling Ki. Write the labels, ordered according to the request.
1, 3, 2
(1: 31 nM, 3: 4 nM, 2: 1.3 nM)

---

experimental-system: Recombinant Human Poly(ADP-Ribose) Polymerase (PARP), PARP-1 (Homo sapiens (Human), UniProt P09874)
stated-conditions: read-out: PARP-1 (Ki); Table 1; text calls the values EC50s
measure-name: Ki (nM)

Below, 5 compounds whose answers are already recorded.
| compound | readout-unit | Ki |
| --- | --- | --- |
| O=c1[nH]nc(Cc2cccc(NS(=O)(=O)c3cccnc3)c2)c2c1CCCC2 | nM | 477 |
| O=C(Nc1cccc(Cc2n[nH]c(=O)c3c2CCCC3)c1)C(c1ccccc1)c1ccccc1 | nM | 655 |
| COc1ccc(CCNC(=O)c2cccc(Cc3n[nH]c(=O)c4c3CCCC4)c2)c(OC)c1 | nM | 56 |
| Cc1c(O)cccc1NC(=O)c1cccc(Cc2n[nH]c(=O)c3c2CCCC3)c1 | nM | 55 |
| O=C(c1ccncc1)N1CCCN(C(=O)c2cc(Cc3n[nH]c(=O)c4c3NCCC4)ccc2F)CC1 | nM | 2.4 |

1. O=C(CNC(=O)OCc1ccccc1)Nc1cccc(CCc2n[nH]c(=O)c3c2CCCC3)c1
2. O=C(c1cc(Cc2n[nH]c(=O)c3c2NCCC3)ccc1F)N1CCN(CCOc2ccccc2)CC1
3. CCN1CCN(C(=O)c2cc(Cc3n[nH]c(=O)c4c3CCCC4)ccc2F)CC1
Sort (3 compounds) by Ki: min first. Write the labels, ordered according to the request.
3, 2, 1
(3: 1.8 nM, 2: 3 nM, 1: 165 nM)

I. O=C(c1cc(Cc2n[nH]c(=O)c3c2CCCC3)ccc1F)N1CCN(c2cccc(F)c2)CC1
II. O=C(Nc1cccc(Cc2n[nH]c(=O)c3c2CCCC3)c1)c1cc(F)ccc1F
Which entry has a larger number for Ki, I or II ? I would appreciate it if you answered with the label of your choice.
II
(II: 166 nM, I: 3 nM)

P. O=C(Nc1cccc(Cc2n[nH]c(=O)c3c2CCCC3)c1)c1cccs1
Q. CC(Cc1n[nH]c(=O)c2c1CCCC2)c1ccc(F)c(-c2cccc(C(=O)NC3CC3)c2)c1 (centres unmarked)
Between the entries labeled P and Q , whose measured Ki is lower? I would appreciate it if you answered with the label of your choice.
P

P. O=C(NCC1CCNCC1)c1cccc(Cc2n[nH]c(=O)c3c2CCCC3)c1
Q. O=C(COc1ccccc1)N1CCN(C(=O)c2cc(Cc3n[nH]c(=O)c4c3CCCC4)ccc2F)CC1
Between the entries labeled P and Q , whose measured Ki is lower? I would appreciate it if you answered with the label of your choice.
Q
(Q: 1.9 nM, P: 23 nM)

P. COc1ccc(OC)c(CCNC(=O)c2cccc(Cc3n[nH]c(=O)c4c3CCCC4)c2)c1
Q. Cc1nc2cc(C(=O)N3CCCN(C(=O)c4cc(Cc5n[nH]c(=O)c6c5NCCC6)ccc4F)CC3)ccc2[nH]1
R. CCN(CCNC(=O)c1cccnc1)C(=O)c1cc(Cc2n[nH]c(=O)c3c2CCCC3)ccc1F
S. O=C(c1cnccn1)N1CCN(C(=O)c2cc(Cc3n[nH]c(=O)c4c3NCCC4)ccc2F)CC1
Sort (4 compounds) by Ki: min first. Write the labels, ordered according to the request.
R, S, Q, P
(R: 1 nM, S: 1.5 nM, Q: 2.7 nM, P: 55 nM)

P. CC(C)(C)OC(=O)NC1CCN(C(=O)c2cc(Cc3n[nH]c(=O)c4c3NCCC4)ccc2F)CC1
Q. CC1=C(C)C(=O)N(c2cc(Cc3n[nH]c(=O)c4c3CCCC4)ccc2F)C1=O
R. O=C(NCCc1ccccc1F)c1cccc(Cc2n[nH]c(=O)c3c2CCCC3)c1
Sort (3 compounds) by Ki: min first. Write the labels, ordered according to the request.
Q, P, R
(Q: 1 nM, P: 2.8 nM, R: 42 nM)

P. O=C(CN1CCN(C(=O)c2cc(Cc3n[nH]c(=O)c4c3CCCC4)ccc2F)CC1)N1CCCC1
Q. O=C(CCc1ccccc1)Nc1cccc(Cc2n[nH]c(=O)c3c2CCCC3)c1
Which entry has a larger number for Ki, P or Q ? I would appreciate it if you answered with the label of your choice.
Q

A. O=C(NC1CCN(C(=O)c2ccco2)CC1)c1cc(Cc2n[nH]c(=O)c3c2NCCC3)ccc1F
B. Cc1cc(Cl)ccc1OCC(=O)Nc1cccc(Cc2n[nH]c(=O)c3c2CCCC3)c1
C. O=C(Nc1cccc(Cc2n[nH]c(=O)c3c2CCCC3)c1)c1ccccc1CCc1ccccc1
D. O=C(c1cc(Cc2n[nH]c(=O)c3c2NCCC3)ccc1F)N1CCN(c2ccc(F)cc2)CC1
E. CCN(CC)c1ccc(C(=O)Nc2cccc(Cc3n[nH]c(=O)c4c3CCCC4)c2)cc1
Place the items in sequence of falling Ki. Write the labels, ordered according to the request.
C, E, B, A, D
(C: 610 nM, E: 175 nM, B: 56 nM, A: 4 nM, D: 2 nM)
